Test system: glycogen synthase kinase-3 (GSK3A per assay name; protocol says GSK3B)
TEST NAME: GSK3 binders on small-molecule microarrays, primary screen, biochemical, small-molecule microarray, 635 nm fluorescence, GSK3A (AID 1103); also: the record names both GSK3A and GSK3B
CONDITION SET: small-molecule microarray binding, fluorescence 635 nm; higher = more signal
RECORDED ENDPOINT: composite z-score

compound="C=CC1(C(=O)OC)CC=C(C(=O)OC)CC1 (centres undefined)" reported_value=1.15
compound="CCN(CC)c1ccc(N2CC=CC34O[C@@H]5C=CCCOC(=O)C5[C@H]3C(=O)N(CCCCCCO)[C@@H]4C2=O)cc1 (some centres undefined)" reported_value=-0.39
compound=COC(=O)c1c(CC[C@@H](CO)NC(=O)NCCn2cc(C3(O)CCCC3)nn2)oc(C(C)=O)c1C(=O)OC reported_value=-0.0275
compound="CCC(CC)C(O)C1C=CC2C(=O)NC(=O)C2N1Nc1ccccn1 (centres undefined)" reported_value=0.291
compound=COC(=O)[C@@]1(Cc2ccc(OC)cc2)[C@H]2c3cc(C(=O)N(C)C)n(CCc4ccccn4)c3C[C@H]2CN1C(=O)c1ccccc1 reported_value=-0.133
compound=COCCOC(=O)N1C(=O)[C@@]2(c3cc(C#CCC(C(=O)OC)C(=O)OC)ccc31)[C@H](c1ccccc1OCCO)N1[C@H](c3ccccc3)[C@H](c3ccccc3)OC(=O)[C@H]1[C@@H]2C(=O)N1CCN(c2ncccn2)CC1 reported_value=1.32
compound=Cc1ccc([C@@H]2C[C@@H](Sc3ccccc3)[C@H](C(=O)O)CN2S(=O)(=O)c2ccc(C)cc2)cc1 reported_value=1.34
compound=C=C(/C(=C/C[C@H](OC(C)=O)c1ccc(CO)o1)c1cc(C(=O)OC)ccc1OC)C(C)C reported_value=-0.196
compound="CN1C(=O)C2C=CC(C(O)C3CC=CCC3)N(N(c3ccccc3)c3ccccc3)C2C1=O (centres undefined)" reported_value=-1.64

----------
TEST NAME: binders of probe aFGF10 on microarray, primary screen, stem cell growth factor project, biochemical, small-molecule microarray, fluorescence 635/667 (AID 1071);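 also: score merges 667 nm spot intensity and signal to noise from triplicate slides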
CONDITION SET: higher = more signal
RECORDED ENDPOINT: composite z-score

compound="O=C1C2C=CC(C(O)Cc3ccccc3)N(n3cnnc3)C2C(=O)N1Cc1ccccc1 (stereo not drawn)" reported_value=0.426
compound="C=CCC(OC(C)=O)[C@@H]1[C@@H](N(Cc2ccc(-c3ccccc3)cc2)C(=O)c2ccc(-c3ccccc3)cc2)c2cc(OCCCO)ccc2N1C(=O)Cc1ccc2ccccc2c1 (stereo partly drawn)" reported_value=0.0381
compound=CCCC[C@@H]1C[C@H]1[C@@H](NC(=O)c1ccco1)c1ccccc1C(F)(F)F reported_value=0.0033
compound=C=CCOC(=O)[C@@H]1[C@H]2C(=O)O[C@H](c3ccccc3)[C@H](c3ccccc3)N2[C@H](c2ccc(OCCOC(=O)[C@@H]3C[C@@H]4C(=O)NCC(=O)N4[C@@H]3c3ccc(O)cc3)cc2)[C@@]12C(=O)Nc1ccc(I)cc12 reported_value=0.371
compound=COC(=O)[C@@]1(CCS(=O)(=O)c2ccccc2)N=C(c2ccc(OCCCO)cc2)O[C@H]1c1ccccc1CN=[N+]=[N-] reported_value=-0.303
compound=O=C1O[C@@H](c2ccccc2)[C@@H](c2ccccc2)N2[C@@H](c3ccccc3OCCO)[C@]3(C(=O)Nc4ccccc43)[C@@H](C(=O)Nc3nc4ccccc4s3)[C@H]12 reported_value=0.841
compound="CCCCC(CC)C(O)C1C=CC2C(=O)N(Cc3ccccc3)C(=O)C2N1n1cnnc1 (stereo not drawn)" reported_value=0.175
compound=COC(=O)[C@@]1(Cc2ccc(F)cc2)[C@H]2c3cc(C(=O)N(C)C)n(Cc4ccccc4)c3C[C@H]2CN1C(=O)c1ccccc1 reported_value=0.314
compound=COc1ccc(/C=C/C=O)cc1 reported_value=0.19
compound=CCOC(=O)C1=C[C@@H](C(C)(C)C)N(S(=O)(=O)c2ccc(C)cc2)[C@H]1c1ccc(F)cc1 reported_value=0.619
compound=COC(=O)[C@@]1(Cc2ccccc2)N=C(c2ccc(OCCCO)cc2)O[C@H]1c1ccccc1 reported_value=0.531
compound=COc1cc2c(cc1OC)CN(C(=O)[C@H]1[C@@H]3C(=O)O[C@@H](c4ccccc4)[C@@H](c4ccccc4)N3[C@@H](c3ccc(O)cc3)[C@]13C(=O)Nc1ccc(C#CCCO)cc13)CC2 reported_value=0.519
compound="CCCCCN1CC=CC23O[C@@H]4C=CCCOC(=O)C4[C@H]2C(=O)N(CCCCCO)[C@@H]3C1=O (stereo partly drawn)" reported_value=-0.168
